- System: E. coli NMI 3898/15
- Type: cell-based, Escherichia coli
- test.settings: NMI 3898/15, 20 h
- Procedure: MIC values of the peptidomimetics were evaluated by using the modified Hancock lab protocol in non-binding polystyrene microtiter plates. Bacterial suspensions of ~5 × 10^5 CFU/mL in Mueller-Hinton broth (Difco, Sparks, MD, USA) were prepared with Mg^2+ and Ca^2+ concentrations of 4 mg/L each. […] Following incubation for 20 h of the covered plates at 35 °C (±2 °C) with circular shaking at 180 rpm, the MICs were read.
// MIC, E. coli NMI 3898/15 lookup, one value per entry
Write the value in µg/mL as a bare number.

- molecule: "NCCCC[C@H](NC(=O)CCN(Cc1ccc(F)cc1)C(=O)[C@H](CCCCN)NC(=O)COCCOCCNC(=O)CCN(Cc1ccc(F)cc1)C(=O)[C@H](CCCCN)NC(=O)CCN(Cc1ccc(F)cc1)C(=O)[C@H](CCCCN)NC(=O)COCCOCCNC(=O)CCN(Cc1ccc(F)cc1)C(=O)[C@H](CCCCN)NC(=O)CCN(Cc1ccc(F)cc1)C(=O)[C@@H](N)CCCCN)C(=O)N(CCC(N)=O)Cc1ccc(F)cc1 [Compound 16, H-[X]2-sPEG2-[X]2-sPEG2-[X]2-NH2]"
  measured.target: "E. coli NMI 3898/15"
  value.unit: "µg/mL"
  reported.measurement: 8

For NCCCC[C@H](NC(=O)CCN(Cc1ccc(F)cc1)C(=O)[C@H](CCCCN)NC(=O)CCN(Cc1ccc(F)cc1)C(=O)[C@H](CCCCN)NC(=O)COCCOCCOCCN)C(=O)N(CCC(=O)NCCOCCOCCOCC(=O)N[C@@H](CCCCN)C(=O)N(CCC(=O)N[C@@H](CCCCN)C(=O)N(CCC(=O)N[C@@H](CCCCN)C(=O)N(CCC(=O)NCCOCCOCCOCC(N)=O)Cc1ccc(F)cc1)Cc1ccc(F)cc1)Cc1ccc(F)cc1)Cc1ccc(F)cc1 [Compound 13, H-sPEG3-[X]3-sPEG3-[X]3-sPEG3-NH2] , what is its reported MIC, E. coli NMI 3898/15?
16

---

// % MeCN at Elution, Supelco Discovery lookup, one value per entry
- experimental.details: Hydrophobicity by retention in analytical RP-HPLC (% MeCN at peak elution)
- Format: physicochemical
- test.settings: Supelco Discovery BIO Wide pore C18 column; gradient 0→60% B during 15 min
Write the value in % MeCN as a bare number.

- molecule: "NCCCC[C@H](NC(=O)CCN(Cc1ccc(F)cc1)C(=O)[C@H](CCCCN)NC(=O)CCOCCOCCOCCOCCNC(=O)CCN(Cc1ccc(F)cc1)C(=O)[C@H](CCCCN)NC(=O)CCN(Cc1ccc(F)cc1)C(=O)[C@H](CCCCN)NC(=O)CCOCCOCCOCCOCCNC(=O)CCN(Cc1ccc(F)cc1)C(=O)[C@H](CCCCN)NC(=O)CCN(Cc1ccc(F)cc1)C(=O)[C@@H](N)CCCCN)C(=O)N(CCC(N)=O)Cc1ccc(F)cc1 [Compound 18, H-[X]2-sPEG4-[X]2-sPEG4-[X]2-NH2]"
  % MeCN at Elution, Supelco Discovery, % MeCN: 42.3

For NCCCC[C@H](NC(=O)CCN(Cc1ccc(F)cc1)C(=O)[C@H](CCCCN)NC(=O)CCN(Cc1ccc(F)cc1)C(=O)[C@H](CCCCN)NC(=O)CCN(Cc1ccc(F)cc1)C(=O)[C@H](CCCCN)NC(=O)CCN(Cc1ccc(F)cc1)C(=O)[C@H](CCCCN)NC(=O)CCN(Cc1ccc(F)cc1)C(=O)[C@H](CCCCN)NC(=O)CCOCCOCCOCCOCCN)C(=O)N(CCC(=O)NCCOCCOCCOCCOCCC(N)=O)Cc1ccc(F)cc1 [Compound 5, H-sPEG4-[X]6-sPEG4-NH2] , what is its reported % MeCN at Elution, Supelco Discovery?
42.5

---

- Test system: A. baumannii NMI 3658/17
- Assay type: cell-based, Acinetobacter baumannii
- test.settings: NMI 3658/17, 20 h
// MIC, A. baumannii NMI 3658/17 lookup, one value per entry
Write the value in µg/mL as a bare number.

Below: 2 molecules and their reported MIC, A. baumannii NMI 3658/17.
- molecule: "NCCCC[C@H](NC(=O)CCN(Cc1ccc(F)cc1)C(=O)[C@H](CCCCN)NC(=O)CCN(Cc1ccc(F)cc1)C(=O)[C@H](CCCCN)NC(=O)CCN(Cc1ccc(F)cc1)C(=O)[C@H](CCCCN)NC(=O)CCN(Cc1ccc(F)cc1)C(=O)[C@H](CCCCN)NC(=O)CCN(Cc1ccc(F)cc1)C(=O)[C@H](CCCCN)NC(=O)COCCOCCN)C(=O)N(CCC(N)=O)Cc1ccc(F)cc1 [Compound 2, H-sPEG2-[X]6-NH2]"
  measured.target: "A. baumannii NMI 3658/17"
  value.unit: "µg/mL"
  MIC, A. baumannii NMI 3658/17: 4
- molecule: "NCCCC[C@H](NC(=O)CCN(Cc1ccc(F)cc1)C(=O)[C@H](CCCCN)NC(=O)CCN(Cc1ccc(F)cc1)C(=O)[C@H](CCCCN)NC(=O)CCOCCOCCOCCOCCN)C(=O)N(CCC(=O)NCCOCCOCCOCCOCCC(=O)N[C@@H](CCCCN)C(=O)N(CCC(=O)N[C@@H](CCCCN)C(=O)N(CCC(=O)N[C@@H](CCCCN)C(=O)N(CCC(=O)NCCOCCOCCOCCOCCC(N)=O)Cc1ccc(F)cc1)Cc1ccc(F)cc1)Cc1ccc(F)cc1)Cc1ccc(F)cc1 [Compound 14, H-sPEG4-[X]3-sPEG4-[X]3-sPEG4-NH2]"
  measured.target: "A. baumannii NMI 3658/17"
  value.unit: "µg/mL"
  MIC, A. baumannii NMI 3658/17: 32

For NCCCC[C@H](NC(=O)CCN(Cc1ccc(F)cc1)C(=O)[C@H](CCCCN)NC(=O)CCN(Cc1ccc(F)cc1)C(=O)[C@H](CCCCN)NC(=O)COCCOCCOCCN)C(=O)N(CCC(=O)NCCOCCOCCOCC(=O)N[C@@H](CCCCN)C(=O)N(CCC(=O)N[C@@H](CCCCN)C(=O)N(CCC(=O)N[C@@H](CCCCN)C(=O)N(CCC(=O)NCCOCCOCCOCC(N)=O)Cc1ccc(F)cc1)Cc1ccc(F)cc1)Cc1ccc(F)cc1)Cc1ccc(F)cc1 [Compound 13, H-sPEG3-[X]3-sPEG3-[X]3-sPEG3-NH2] , what is its reported MIC, A. baumannii NMI 3658/17?
16

---

// % MeCN at Elution, Luna lookup, one value per entry
- experimental.details: Hydrophobicity by retention in analytical RP-HPLC (% MeCN at peak elution)
- Format: physicochemical
- test.settings: Phenomenex Luna C18(2) column; RP-HPLC gradient 0→60% B during 15 min; relative hydrophobicity
Write the value in % MeCN as a bare number.

Below: 2 compounds and their reported % MeCN at Elution, Luna.
- compound: "NCCCC[C@H](NC(=O)CCN(Cc1ccc(F)cc1)C(=O)[C@H](CCCCN)NC(=O)CCN(Cc1ccc(F)cc1)C(=O)[C@H](CCCCN)NC(=O)COCCN)C(=O)N(CCC(=O)NCCOCC(=O)N[C@@H](CCCCN)C(=O)N(CCC(=O)N[C@@H](CCCCN)C(=O)N(CCC(=O)N[C@@H](CCCCN)C(=O)N(CCC(=O)NCCOCC(N)=O)Cc1ccc(F)cc1)Cc1ccc(F)cc1)Cc1ccc(F)cc1)Cc1ccc(F)cc1 [Compound 11, H-sPEG1-[X]3-sPEG1-[X]3-sPEG1-NH2]"
  % MeCN at Elution, Luna, % MeCN: 40.8
- compound: "NCCCC[C@H](NC(=O)CCN(Cc1ccc(F)cc1)C(=O)[C@H](CCCCN)NC(=O)CCN(Cc1ccc(F)cc1)C(=O)[C@H](CCCCN)NC(=O)CCOCCOCCOCCOCCOCCOCCNC(=O)CCN(Cc1ccc(F)cc1)C(=O)[C@H](CCCCN)NC(=O)CCN(Cc1ccc(F)cc1)C(=O)[C@H](CCCCN)NC(=O)CCN(Cc1ccc(F)cc1)C(=O)[C@@H](N)CCCCN)C(=O)N(CCC(N)=O)Cc1ccc(F)cc1 [Compound 10, H-[X]3-sPEG6-[X]3-NH2]"
  % MeCN at Elution, Luna, % MeCN: 42.3

Okay, next one:
For NCCCC[C@H](NC(=O)CCN(Cc1ccc(F)cc1)C(=O)[C@H](CCCCN)NC(=O)CCN(Cc1ccc(F)cc1)C(=O)[C@H](CCCCN)NC(=O)CCN(Cc1ccc(F)cc1)C(=O)[C@H](CCCCN)NC(=O)CCN(Cc1ccc(F)cc1)C(=O)[C@H](CCCCN)NC(=O)CCN(Cc1ccc(F)cc1)C(=O)[C@@H](N)CCCCN)C(=O)N(CCC(N)=O)Cc1ccc(F)cc1 [Compound 1, H-[Lys-βNPhe(4-F)]6-NH2] , what is its reported % MeCN at Elution, Luna?
41.6

---

- experimental.details: Antiproliferative activity on HepG2 cell line (MTT assay)
- Type: cell-based
- test.settings: HepG2 cells; at 1280 µg/mL, value in parenthesis; read-out: HepG2 cell viability at highest concentration tested
// viability at 48 h lookup, one value per entry

Below: 2 compounds and their reported viability at 48 h.
- compound: "NCCCC[C@H](NC(=O)CCN(Cc1ccc(F)cc1)C(=O)[C@H](CCCCN)NC(=O)CCN(Cc1ccc(F)cc1)C(=O)[C@H](CCCCN)NC(=O)COCCOCCNC(=O)CCN(Cc1ccc(F)cc1)C(=O)[C@H](CCCCN)NC(=O)CCN(Cc1ccc(F)cc1)C(=O)[C@H](CCCCN)NC(=O)CCN(Cc1ccc(F)cc1)C(=O)[C@@H](N)CCCCN)C(=O)N(CCC(N)=O)Cc1ccc(F)cc1 [Compound 7, H-[X]3-sPEG2-[X]3-NH2]"
  measure.name: "viability at 48 h"
  reported.measurement: "10%"
- compound: "NCCCC[C@H](NC(=O)CCN(Cc1ccc(F)cc1)C(=O)[C@H](CCCCN)NC(=O)COCCOCCOCCNC(=O)CCN(Cc1ccc(F)cc1)C(=O)[C@H](CCCCN)NC(=O)CCN(Cc1ccc(F)cc1)C(=O)[C@H](CCCCN)NC(=O)COCCOCCOCCNC(=O)CCN(Cc1ccc(F)cc1)C(=O)[C@H](CCCCN)NC(=O)CCN(Cc1ccc(F)cc1)C(=O)[C@@H](N)CCCCN)C(=O)N(CCC(N)=O)Cc1ccc(F)cc1 [Compound 17, H-[X]2-sPEG3-[X]2-sPEG3-[X]2-NH2]"
  measure.name: "viability at 48 h"
  reported.measurement: "35%"

For NCCCC[C@H](NC(=O)CCN(Cc1ccc(F)cc1)C(=O)[C@H](CCCCN)NC(=O)COCCOCCNC(=O)CCN(Cc1ccc(F)cc1)C(=O)[C@H](CCCCN)NC(=O)CCN(Cc1ccc(F)cc1)C(=O)[C@H](CCCCN)NC(=O)COCCOCCNC(=O)CCN(Cc1ccc(F)cc1)C(=O)[C@H](CCCCN)NC(=O)CCN(Cc1ccc(F)cc1)C(=O)[C@@H](N)CCCCN)C(=O)N(CCC(N)=O)Cc1ccc(F)cc1 [Compound 16, H-[X]2-sPEG2-[X]2-sPEG2-[X]2-NH2] , what is its reported viability at 48 h?
27%
